testedTarget: Gonadotropin-releasing hormone receptor (Rattus norvegicus, UniProt P30969)
Measured Ki accompanies every entry in the list below.
Kindly provide the numeric value in nM only, without the unit symbol.

Query: Item: CC(=O)N[C@@H]1CC(=O)N[C@H](C)C(=O)NCCC[C@H](C(=O)N[C@@H](CO)C(=O)N[C@@H](Cc2ccc(O)cc2)C(=O)N[C@H](Cc2ccc3ccccc3c2)C(=O)N[C@@H](CC(C)C)C(=O)N[C@@H](CCCN=C(N)N)C(=O)N2CCC[C@H]2C(=O)N[C@H](C)C(N)=O)NC(=O)[C@@H](Cc2ccc(Cl)cc2)NC1=O Test system: Gonadotropin-releasing hormone receptor (Rattus norvegicus, UniProt P30969) Read-out: Ki Value: ?
Reply: 2.4

Query: Item: CC(=O)N[C@@H]1CC(=O)N[C@@H](C)C(=O)NCCC[C@H](C(=O)N[C@@H](CO)C(=O)N[C@@H](Cc2ccc(O)cc2)C(=O)N[C@H](CCCN=C(N)N)C(=O)N[C@@H](CC(C)C)C(=O)N[C@@H](CCCN=C(N)N)C(=O)N2CCC[C@H]2C(=O)N[C@H](C)C(N)=O)NC(=O)[C@@H](Cc2ccc(Cl)cc2)NC1=O Test system: Gonadotropin-releasing hormone receptor (Rattus norvegicus, UniProt P30969) Read-out: Ki Value: ?
Reply: 350

Query: Item: CC(=O)N[C@@H]1CC(=O)NCC(=O)NCC[C@H](C(=O)N[C@@H](CO)C(=O)N[C@@H](Cc2ccc(O)cc2)C(=O)N[C@H](Cc2ccc3ccccc3c2)C(=O)N[C@@H](CC(C)C)C(=O)N[C@@H](CCCN=C(N)N)C(=O)N2CCC[C@H]2C(=O)N[C@H](C)C(N)=O)NC(=O)[C@@H](Cc2ccc(Cl)cc2)NC1=O Test system: Gonadotropin-releasing hormone receptor (Rattus norvegicus, UniProt P30969) Read-out: Ki Value: ?
Reply: 0.7

Query: Item: CC(=O)N[C@@H]1CCC(=O)NCCCC[C@H](C(=O)N[C@H]2CC(=O)NC[C@@H](C(N)=O)NC(=O)[C@@H]3CCCN3C(=O)[C@@H]3CCCCNC(=O)CC[C@H](NC2=O)C(=O)N[C@H](Cc2ccc4ccccc4c2)C(=O)N[C@@H](CC(C)C)C(=O)N3)NC(=O)[C@@H](Cc2ccc(Cl)cc2)NC1=O Test system: Gonadotropin-releasing hormone receptor (Rattus norvegicus, UniProt P30969) Read-out: Ki Value: ?
Reply: 4.6

Query: Item: CC(=O)N[C@@H]1CC(=O)NCCCC(=O)NC[C@H](C(=O)N[C@@H](CO)C(=O)N[C@@H](Cc2ccc(O)cc2)C(=O)N[C@H](Cc2ccc3ccccc3c2)C(=O)N[C@@H](CC(C)C)C(=O)N[C@@H](CCCN=C(N)N)C(=O)N2CCC[C@H]2C(=O)N[C@H](C)C(N)=O)NC(=O)[C@@H](Cc2ccc(Cl)cc2)NC1=O Test system: Gonadotropin-releasing hormone receptor (Rattus norvegicus, UniProt P30969) Read-out: Ki Value: ?
Reply: 0.18

Continuing:
Query: Item: CC(=O)N[C@@H]1CNC(=O)C[C@H](C(=O)N[C@@H](CO)C(=O)N[C@@H](Cc2ccc(O)cc2)C(=O)N[C@H](Cc2ccc3ccccc3c2)C(=O)N[C@@H](CC(C)C)C(=O)N[C@@H](CCCN=C(N)N)C(=O)N2CCC[C@H]2C(=O)N[C@H](C)C(N)=O)NC(=O)[C@@H](Cc2ccc(Cl)cc2)NC1=O Test system: Gonadotropin-releasing hormone receptor (Rattus norvegicus, UniProt P30969) Read-out: Ki Value: ?
Reply: 1.7

Query: Item: CC(=O)N[C@@H]1CC(=O)NCCC(=O)NCCC[C@H](C(=O)N[C@@H](CO)C(=O)N[C@@H](Cc2ccc(O)cc2)C(=O)N[C@H](Cc2ccc3ccccc3c2)C(=O)N[C@@H](CC(C)C)C(=O)N[C@@H](CCCN=C(N)N)C(=O)N2CCC[C@H]2C(=O)N[C@H](C)C(N)=O)NC(=O)[C@@H](Cc2ccc(Cl)cc2)NC1=O Test system: Gonadotropin-releasing hormone receptor (Rattus norvegicus, UniProt P30969) Read-out: Ki Value: ?
Reply: 0.17

Query: Item: CC(=O)N[C@@H]1CC(=O)NCC(=O)NCCCC[C@H](C(=O)N[C@@H](CO)C(=O)N[C@@H](Cc2ccc(O)cc2)C(=O)N[C@H](Cc2ccc3ccccc3c2)C(=O)N[C@@H](CC(C)C)C(=O)N[C@@H](CCCN=C(N)N)C(=O)N2CCC[C@H]2C(=O)N[C@H](C)C(N)=O)NC(=O)[C@@H](Cc2ccc(Cl)cc2)NC1=O Test system: Gonadotropin-releasing hormone receptor (Rattus norvegicus, UniProt P30969) Read-out: Ki Value: ?
Reply: 0.14

Query: Item: CC(=O)N[C@@H]1CC(=O)NCCC(=O)NC[C@H](C(=O)N[C@@H](CO)C(=O)N[C@@H](Cc2ccc(O)cc2)C(=O)N[C@H](Cc2ccc3ccccc3c2)C(=O)N[C@@H](CC(C)C)C(=O)N[C@@H](CCCN=C(N)N)C(=O)N2CCC[C@H]2C(=O)N[C@H](C)C(N)=O)NC(=O)[C@@H](Cc2ccc(Cl)cc2)NC1=O Test system: Gonadotropin-releasing hormone receptor (Rattus norvegicus, UniProt P30969) Read-out: Ki Value: ?
Reply: 0.35

Query: Item: CC(=O)N[C@@H]1CC(=O)N[C@@H](C)C(=O)NCCC[C@H](C(=O)N[C@@H](CO)C(=O)N[C@@H](Cc2ccc(O)cc2)C(=O)N[C@H](Cc2ccc3ccccc3c2)C(=O)N[C@@H](CC(C)C)C(=O)N[C@@H](CCCN=C(N)N)C(=O)N2CCC[C@H]2C(=O)N[C@H](C)C(N)=O)NC(=O)[C@@H](Cc2ccc(Cl)cc2)NC1=O Test system: Gonadotropin-releasing hormone receptor (Rattus norvegicus, UniProt P30969) Read-out: Ki Value: ?
Reply: 3.3

---

testedTarget: Gonadotropin-releasing hormone receptor (Rattus norvegicus, UniProt P30969)
Sequence (P30969 whole entry): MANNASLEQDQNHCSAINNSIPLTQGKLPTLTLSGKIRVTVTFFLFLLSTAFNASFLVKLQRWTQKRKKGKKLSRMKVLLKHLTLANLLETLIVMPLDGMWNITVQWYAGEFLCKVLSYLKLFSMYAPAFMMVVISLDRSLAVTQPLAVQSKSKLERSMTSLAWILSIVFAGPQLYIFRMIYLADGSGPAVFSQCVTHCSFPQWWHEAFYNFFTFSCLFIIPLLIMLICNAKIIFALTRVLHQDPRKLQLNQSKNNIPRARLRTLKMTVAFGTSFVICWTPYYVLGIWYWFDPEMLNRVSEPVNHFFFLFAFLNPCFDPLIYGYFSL
observedProperty: Ki (nM)
Kindly provide the numeric value in nM only, without the unit symbol.

Previously resolved entries follow.
Query: # query: Ki of entry CC(=O)N[C@@H]1CC(=O)NCCC(=O)NCC[C@H](C(=O)N[C@@H](CO)C(=O)N[C@@H](Cc2ccc(O)cc2)C(=O)N[C@H](Cc2ccc3ccccc3c2)C(=O)N[C@@H](CC(C)C)C(=O)N[C@@H](CCCN=C(N)N)C(=O)N2CCC[C@H]2C(=O)N[C@H](C)C(N)=O)NC(=O)[C@@H](Cc2ccc(Cl)cc2)NC1=O
Reply: 0.32

Query: # query: Ki of entry CC(=O)N[C@@H]1CCC(=O)NCC(=O)NCCC[C@H](C(=O)N[C@@H](CO)C(=O)N[C@@H](Cc2ccc(O)cc2)C(=O)N[C@H](Cc2ccc3ccccc3c2)C(=O)N[C@@H](CC(C)C)C(=O)N[C@@H](CCCN=C(N)N)C(=O)N2CCC[C@H]2C(=O)N[C@H](C)C(N)=O)NC(=O)[C@@H](Cc2ccc(Cl)cc2)NC1=O
Reply: 4.2

With those in mind, consider the next compound.
Query: # query: Ki of entry CC(=O)N[C@@H]1CC(=O)NCCCC[C@H](C(=O)N[C@@H](CO)C(=O)N[C@@H](Cc2ccc(O)cc2)C(=O)N[C@H](Cc2ccc3ccccc3c2)C(=O)N[C@@H](CC(C)C)C(=O)N[C@@H](CCCN=C(N)N)C(=O)N2CCC[C@H]2C(=O)N[C@H](C)C(N)=O)NC(=O)[C@@H](Cc2ccc(Cl)cc2)NC1=O
Reply: 0.82
